Numbers sourced from patent US20240279237A1.

Reported pIC50 values are given for each entry in this list.
Molecular target: NLRP3 (Homo sapiens, UniProt Q96P20)
Construct: Seed THP-1 cells (25,000 cells/well) containing 1.0 μg/ml LPS in 40 μl of RPMI medium
Sequence (Q96P20 whole entry): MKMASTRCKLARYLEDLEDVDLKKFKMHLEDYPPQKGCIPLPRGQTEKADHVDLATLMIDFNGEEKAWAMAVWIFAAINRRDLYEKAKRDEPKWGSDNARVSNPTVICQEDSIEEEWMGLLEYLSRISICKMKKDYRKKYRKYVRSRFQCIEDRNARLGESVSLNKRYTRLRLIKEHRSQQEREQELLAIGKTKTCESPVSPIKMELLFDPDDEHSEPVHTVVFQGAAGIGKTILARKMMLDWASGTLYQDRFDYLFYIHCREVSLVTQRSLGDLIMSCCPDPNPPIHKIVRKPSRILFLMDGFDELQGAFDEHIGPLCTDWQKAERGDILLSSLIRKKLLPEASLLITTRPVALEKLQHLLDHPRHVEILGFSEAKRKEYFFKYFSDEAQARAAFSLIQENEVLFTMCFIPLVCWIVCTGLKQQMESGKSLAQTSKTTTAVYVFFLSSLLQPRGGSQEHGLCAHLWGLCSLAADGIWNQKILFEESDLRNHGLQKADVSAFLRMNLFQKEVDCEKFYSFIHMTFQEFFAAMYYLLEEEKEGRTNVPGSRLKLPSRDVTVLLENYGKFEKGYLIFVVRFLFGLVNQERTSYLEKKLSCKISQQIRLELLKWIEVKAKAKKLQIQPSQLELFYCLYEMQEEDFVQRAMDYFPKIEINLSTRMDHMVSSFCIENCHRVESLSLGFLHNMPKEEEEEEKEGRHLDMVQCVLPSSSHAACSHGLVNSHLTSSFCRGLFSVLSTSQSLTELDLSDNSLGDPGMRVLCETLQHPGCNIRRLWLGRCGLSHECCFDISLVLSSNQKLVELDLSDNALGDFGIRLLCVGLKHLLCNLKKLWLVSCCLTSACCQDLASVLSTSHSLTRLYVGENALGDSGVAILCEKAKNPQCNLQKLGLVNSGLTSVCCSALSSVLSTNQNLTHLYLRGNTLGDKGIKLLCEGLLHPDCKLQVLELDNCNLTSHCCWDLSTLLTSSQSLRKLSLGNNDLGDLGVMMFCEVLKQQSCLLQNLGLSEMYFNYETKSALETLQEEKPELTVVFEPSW
Assay: THP-1 Cells Pyroptosis Assay
Settings: THP-1 cells with 1.0 μg/ml LPS; compound 3 hours; nigericin 5 μM 1 hr; resazurin readout
pIC50: −log10 of the molar value.
value-kind: pIC50

chemical_smiles=Cc1cc(Cl)cc(O)c1-c1ccc2oc(NCc3c[nH]cn3)nc2n1 reported_measurement=6.54
chemical_smiles=Cc1cc(C(F)(F)F)cc(O)c1-c1ccc2oc(N[C@@H]3CCCN(C)C3)nc2n1 reported_measurement=9.15
chemical_smiles=CCN1CCC[C@@H](Nc2nc3nc(-c4c(C)cc(C)cc4O)ccc3o2)C1 reported_measurement=9.15
